Listed next: entries and their corresponding MIC.
System: Streptococcus pneumoniae
method.notes: In vitro minimum inhibitory concentration against Streptococcus pneumoniae UC41
Assay type: functional
Give the number; µg/mL is assumed, so skip it.

• CC(=O)N[C@@H]1[C@H](O[C@@H]2c3ccc(c(Cl)c3)Oc3cc4cc(c3O[C@@H]3O[C@@H](CO)[C@@H](O)[C@H](O)[C@@H]3NC(=O)CCCCCCC(C)C)Oc3ccc(cc3Cl)C[C@H]3NC(=O)[C@H](N)c5ccc(O)c(c5)Oc5cc(O)cc(c5)[C@H](NC3=O)C(=O)N[C@H]4C(=O)N[C@H]3C(=O)N[C@@H]2C(=O)N[C@H](C(=O)NCCCN(C)C)c2cc(O)cc(O[C@H]4O[C@H](CO)[C@@H](O)[C@@H](O)[C@@H]4O)c2-c2cc3ccc2O)O[C@@H](CO)[C@@H](O)[C@@H]1O = 0.06

Query string: Please list MIC recorded for the molecule CC(=O)N[C@@H]1[C@H](O[C@@H]2c3ccc(c(Cl)c3)Oc3cc4cc(c3O[C@@H]3O[C@@H](CO)[C@@H](O)[C@H](O)[C@@H]3NC(=O)CCCCCCC(C)C)Oc3ccc(cc3Cl)C[C@H]3NC(=O)[C@H](N)c5ccc(O)c(c5)Oc5cc(O)cc(c5)[C@H](NC3=O)C(=O)N[C@H]4C(=O)N[C@H]3C(=O)N[C@@H]2C(=O)N[C@H](C(=O)N(C)CCN(C)C)c2cc(O)cc(O[C@H]4O[C@H](CO)[C@@H](O)[C@@H](O)[C@@H]4O)c2-c2cc3ccc2O)O[C@@H](CO)[C@@H](O)[C@@H]1O
Result string: 0.06
